Assay Method Text: Concentration in plasma (portal) following oral dose in rats at 1 hr
Type: ADME, organism-based
Condition: rat
Property: concentration at 1 h

* CCCOc1ccc(Br)cc1-c1cc(-c2ccc(Cl)cc2)[nH]c1-c1ccncc1 | 1240 nM

---

Assay Method Text: Inhibition of p38 kinase at 2 uM
pIC50: −log10 of the molar value.
Property: pIC50

- C[S+]([O-])c1ccc(-c2nc(-c3ccc(F)cc3)c(-c3ccncc3)[nH]2)cc1 (stereo unspecified): 7.43

---

Target System: Glucagon receptor (Homo sapiens, UniProt P47871)
Sequence (P47871 whole entry): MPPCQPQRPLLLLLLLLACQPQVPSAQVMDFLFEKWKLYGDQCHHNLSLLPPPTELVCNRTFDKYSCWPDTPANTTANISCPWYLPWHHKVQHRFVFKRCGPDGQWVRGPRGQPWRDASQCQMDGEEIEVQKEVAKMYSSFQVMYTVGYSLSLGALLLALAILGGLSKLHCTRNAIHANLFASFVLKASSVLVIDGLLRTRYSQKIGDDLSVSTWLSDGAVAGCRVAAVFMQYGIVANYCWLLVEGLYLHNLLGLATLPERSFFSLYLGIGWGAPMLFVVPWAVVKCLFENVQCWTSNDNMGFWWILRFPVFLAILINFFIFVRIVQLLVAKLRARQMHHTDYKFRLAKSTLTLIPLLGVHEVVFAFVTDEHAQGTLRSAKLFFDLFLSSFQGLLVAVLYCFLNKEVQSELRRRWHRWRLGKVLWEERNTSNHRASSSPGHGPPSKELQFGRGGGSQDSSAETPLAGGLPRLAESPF
Assay Method Text: Binding affinity towards glucagon receptor determined by reduction in binding of [125I]glucagon to the human glucagon receptor (GGR) expressed on CHO cells in presence of Mg+2
Assay type: cell-based
Hi all, reminder that labels come from IC50, split as lower bin = under 0.2 µM, middle bin = from 0.2 µM up to 0.4 µM, upper bin = 0.4 µM and over

* CCCOc1cc(Br)ccc1-c1cc(-c2ccc(Cl)cc2)[nH]c1-c1ccncc1 | lower bin
* Fc1ccc(-c2cc(-c3ccc(F)cc3)c(-c3ccncc3)[nH]2)cc1 | middle bin
* CC(C)c1cc(-c2ccc(Cl)cc2)[nH]c1-c1ccncc1 | lower bin
* CCCCCCOc1ccccc1-c1cc(-c2ccc(Cl)cc2)[nH]c1-c1ccncc1 | upper bin
* CCCCOc1ccccc1-c1cc(-c2ccc(Cl)cc2)[nH]c1-c1ccncc1 | lower bin
* COc1ccc(-c2cc(-c3ccc(Cl)cc3)[nH]c2-c2ccncc2)cc1 | upper bin
* Cc1ccc(-c2cc(-c3ccc(F)cc3)c(-c3ccncc3)[nH]2)cc1 | upper bin
* Clc1ccc(-c2cc(-c3ccccc3)c(-c3ccncc3)[nH]2)cc1 | middle bin
* CCCOc1ccc(Br)cc1-c1cc(-c2ccc(Cl)cc2)[nH]c1-c1ccncc1 | lower bin
